# TARGET SYSTEM: human V1b receptors (Homo sapiens)
# Sequence (P47901 whole entry): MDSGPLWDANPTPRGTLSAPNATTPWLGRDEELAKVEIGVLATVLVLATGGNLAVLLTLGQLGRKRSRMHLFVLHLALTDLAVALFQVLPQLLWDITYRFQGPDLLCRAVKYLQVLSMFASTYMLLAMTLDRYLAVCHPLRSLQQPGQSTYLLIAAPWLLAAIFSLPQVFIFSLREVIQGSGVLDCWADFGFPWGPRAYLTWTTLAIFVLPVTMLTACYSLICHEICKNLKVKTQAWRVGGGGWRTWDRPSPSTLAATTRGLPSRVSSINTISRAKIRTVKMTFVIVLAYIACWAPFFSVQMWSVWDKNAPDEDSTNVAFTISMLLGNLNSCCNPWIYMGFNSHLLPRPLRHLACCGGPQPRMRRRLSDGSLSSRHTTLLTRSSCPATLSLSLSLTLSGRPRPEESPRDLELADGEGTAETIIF
pIC50: −log10 of the molar value.

COMPOUND	pIC50
CCN(CC)C(=O)Nc1ccc(S(=O)(=O)N2C(=O)C(NCCC3CCNCC3)(c3ccccc3Cl)c3cc(Cl)c(C)cc32)cc1 (centres unmarked)	6.74
CCN(CC)C(=O)Nc1ccc(S(=O)(=O)N2C(=O)C(NCCC3CCNCC3)(c3ccccc3Cl)c3cc(Cl)c(Cl)cc32)cc1 (centres unmarked)	6.68

---

Counter-ions that a name gives are not always drawn.
Listed below: melting point values for each entry.

COMPOUND	UNIT DESCRIPTOR	melting point
COc1cccc(S(=O)(=O)N2C(=O)C(CCCN3CCNCC3)(c3ccccc3F)c3nc(OC)ccc32)c1.Cl (single isomer, unassigned)	°C	178
COc1ccc2c(n1)C(CCCCN1CCNCC1)(c1ccccc1F)C(=O)N2S(=O)(=O)c1ccc(OC(C)C)cc1 (racemic) (as salt: HCl) [Compound No. 10]	°C	210
COc1ccc2c(n1)C(CCCN1CCCCC1)(c1ccccc1F)C(=O)N2S(=O)(=O)c1ccc(OC(C)C)cc1 (stereo not drawn) (as salt: HCl)	°C	157
COc1ccc2c(n1)C(CCCN1CCCCC1)(c1ccccc1F)C(=O)N2S(=O)(=O)c1ccc(OC(F)F)cc1 (stereo not drawn) (as salt: HCl)	°C	133
COc1ccc2c(n1)C(CCCCN1CCN(C)CC1)(c1ccccc1F)C(=O)N2S(=O)(=O)c1ccc(OC(C)C)cc1 (stereo not drawn) (as salt: salt)	°C	52
COc1ccc2c(n1)C(CCCN1CCNCC1)(c1ccccc1F)C(=O)N2S(=O)(=O)c1ccc(OC(C)C)cc1 (stereo not drawn) (as salt: HCl) [Compound No. 2]	°C	123
COc1ccc2c(n1)C(CCCN1CCCCC1)(c1ccccc1F)C(=O)N2S(=O)(=O)c1cccc(Cl)c1 (stereo not drawn) (as salt: HCl)	°C	148
Cc1ccc2c(n1)C(CCCN1CCNCC1)(c1ccccc1F)C(=O)N2S(=O)(=O)c1ccc(OC(C)C)cc1.Cl (single isomer, unassigned)	°C	150
COc1cccc(S(=O)(=O)N2C(=O)C(CCCN3CCCCC3)(c3ccccc3F)c3nc(OC)ccc32)c1.Cl (single isomer, unassigned)	°C	148

// data source = patent US8324214B2
